# Tested on: NCI-H226
# experiment.summary: NCI tumour cell line growth inhibition, 48 h
Active and inactive are the calls of the source. Cut-off read from the data, not from the text of the source: active = GI50 up to about 1.1 µM and inactive = higher. Square brackets hold non-standard residues; d marks the D form. Peptide text beside a SMILES is read from it. * marks the point of attachment. Boc = CC(C)(C)OC(=O)*; Lac = C[CH](O)C(=O)O; OBn = c1ccc(CO*)cc1
Outcome codes: T for active, F for inactive

[
  {
    "molecule": "Nc1ccc2ccc(N3CCNCC3)nc2n1",
    "assigned.class": "F"
  },
  {
    "molecule": "CC(OC(=O)C(Cc1ccccc1)NC(=O)C(Cc1ccccc1)NC(=O)OC(C)(C)C)C(=O)OCc1ccccc1 (stereo not drawn) (Boc-Phe-Phe-[Lac]-OBn; configuration not given here)",
    "assigned.class": "F"
  },
  {
    "molecule": "Cc1cccc(/C=N/NC(=S)N2CCCCCC2)n1",
    "assigned.class": "F"
  },
  {
    "molecule": "COc1cc2c(cc1C)[n+]([O-])c(C)c(C(=O)C/C(=N/NC(=O)C[N+](C)(C)C)C(=O)Nc1cccc(Cl)c1C)[n+]2[O-]",
    "assigned.class": "F"
  },
  {
    "molecule": "O=Cc1c2c(cc3c1CC1(C3)Cc3cc4c(c(C=O)c3C1)CCC4)CCC2",
    "assigned.class": "F"
  },
  {
    "molecule": "COc1cc2cc(C(=O)N3CC(COS(C)(=O)=O)c4c3cc(N)c3ccccc43)[nH]c2c(OC)c1OC (stereo not given)",
    "assigned.class": "T"
  },
  {
    "molecule": "CC1=C(O)C(=O)C[C@]2(C)[C@H]3CC=C4[C@@H]5CC(C)(C)CC[C@@H]5C(=O)[C@H](O)[C@@]4(C)[C@]3(C)CC[C@@H]12",
    "assigned.class": "F"
  },
  {
    "molecule": "O=[N+]([O-])c1cccc2nc3ccccc3c(NCCCCCNc3c4ccccc4nc4cccc([N+](=O)[O-])c34)c12",
    "assigned.class": "T"
  },
  {
    "molecule": "Cc1cc(=O)c2c([nH]1)NS(=O)(=O)NC2=O",
    "assigned.class": "F"
  },
  {
    "molecule": "Brc1cccc(C2ON=C(c3ccccc3)N2C23CC4CC(CC(C4)C2)C3)c1 (stereo not given)",
    "assigned.class": "F"
  },
  {
    "molecule": "N#Cc1c2ccc([N+](=O)[O-])cc2c(=O)n2c1sc1ccc(C(F)(F)F)cc12",
    "assigned.class": "F"
  },
  {
    "molecule": "CC/C=C\\C/C=C\\C/C=C\\CCCCCCCC(=O)OC [METHYL LINOLENATE]",
    "assigned.class": "F"
  },
  {
    "molecule": "Oc1ccc2c(c1)OCC1(O)Cc3cc(O)c(O)cc3C21 (stereo not given)",
    "assigned.class": "F"
  },
  {
    "molecule": "O=C(Nc1c(Cl)cc([N+](=O)[O-])cc1Cl)C(=O)C(C(=O)c1ccncc1)C1OC(=O)c2ccccc21 (stereo not given)",
    "assigned.class": "F"
  },
  {
    "molecule": "COC(=O)/C(=N/NC(N)=O)C(C(=O)C(=O)Nc1ccc(C)cc1)c1nc2ccc(C(=O)c3ccccc3)cc2nc1O (stereo not given)",
    "assigned.class": "F"
  },
  {
    "molecule": "COc1cc2c(cc1O)-c1c(OC)c(O)cc3c1C(C2)N(C)CC3 (stereo not given)",
    "assigned.class": "F"
  },
  {
    "molecule": "O=c1[nH]c2[nH]c(-c3ccc(Br)cc3)cc2c2ccccc12",
    "assigned.class": "F"
  },
  {
    "molecule": "CC1=CCC23C(C1)OC(Br)(C=CC2(C)O)C3(C)C (stereo not given)",
    "assigned.class": "F"
  },
  {
    "molecule": "S=C1CCSc2c(ccc3ccccc23)N1",
    "assigned.class": "F"
  },
  {
    "molecule": "CC(C)(C)OC(=O)c1ccc(NCc2cc(O)ccc2O)cc1",
    "assigned.class": "F"
  }
]
